Recorded values, source ChEMBL document CHEMBL1128324.

species: Bos taurus; assay: Effect on rate of glucuronidation of the hydroxyl group by bovine UDP-glucuronyltransferase; assay type: functional
attribute-measured: Relative rate

Cc1cc(C)c(O)cn1 : 1
Cc1ncccc1O : 0.65
Oc1cccc2cnccc12 : 0.45

Batch request: Relative rate for each of the following molecules.
1. Cc1ccc(O)cn1
2. Cc1nccc2c(O)cccc12
3. Cc1ccnc(C)c1O
4. Cc1ncc(C)c2c(O)cccc12

a:
[0.59, 1, 0.81, 0.08]
